These entries and their values trace back to ChEMBL document CHEMBL4765234.

target: Free fatty acid receptor 1 (Homo sapiens); assay: Agonist activity at human recombinant full length GPR40 overexpressed in human HEK293 cells assessed as increase in intracellular calcium level measured over 3 mins by calcium 4 dye based FLIPR assay relative to 100 uM linoleic acid; type: functional, cell-based; conditions: filed as agonist
Sequence (O14842 whole entry): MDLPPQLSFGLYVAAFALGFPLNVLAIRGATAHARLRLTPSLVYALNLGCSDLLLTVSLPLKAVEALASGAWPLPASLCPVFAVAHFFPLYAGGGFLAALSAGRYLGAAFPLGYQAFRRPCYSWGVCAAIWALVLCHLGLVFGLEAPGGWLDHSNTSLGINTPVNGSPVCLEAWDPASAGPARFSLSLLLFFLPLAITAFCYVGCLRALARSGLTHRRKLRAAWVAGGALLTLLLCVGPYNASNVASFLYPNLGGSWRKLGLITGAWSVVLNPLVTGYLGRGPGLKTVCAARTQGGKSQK
Measured Emax values are reported for all entries that follow.
quantity measured: Emax

>  <compound>
CC#C[C@@H](CC(=O)O)c1ccc(OCc2ccc(CN3CCC4(C=Cc5ccccc54)CC3)c(F)c2)cc1

>  <quantity measured>
Emax

>  <val>
51%

$$$$
>  <compound>
CC#C[C@@H](CC(=O)O)c1ccc(OCc2ccc(CN3CCC4(C=Cc5ccccc54)CC3)s2)cc1

>  <quantity measured>
Emax

>  <val>
50%

$$$$
>  <compound>
CC#C[C@@H](CC(=O)O)c1ccc(OCc2ccc(CN3CCC4(CC3)CN(C)c3ccc(OC)cc34)cc2)cc1

>  <quantity measured>
Emax

>  <val>
49%

$$$$
